test system: Coxsackievirus B2; assay: Antiviral activity against Human coxsackievirus B2 Ohio-1 infected in african green monkey Vero cells after 3 days by plaque reduction assay; assay type: functional, organism-based, Coxsackievirus B2 (strain Ohio-1); settings: Enterovirus B, Vero, 72 h
pEC50: −log10 of the molar value.
measured.parameter: pEC50

[[record]]
compound_structure_string = "COc1c(C)c2c(c(O)c1C/C=C(\\C)CCC(=O)O)C(=O)OC2"
reading_qualifier = "<"
assay_value = 4.89

[[record]]
compound_structure_string = "Nc1ccc(-c2nc3cc(C(F)(F)F)ccc3n2C23CC4CC(CC(C4)C2)C3)cc1"
reading_qualifier = "="
assay_value = 4.96

[[record]]
compound_structure_string = "CC(=O)Nc1ccc(-c2nc3cc([N+](=O)[O-])ccc3[nH]2)cc1"
reading_qualifier = "<"
assay_value = 4.00

[[record]]
compound_structure_string = "O=C(CN1CCN(c2ccccc2)CC1)Nc1ccc(-c2nc3cc(C(F)(F)F)ccc3n2C23CC4CC(CC(C4)C2)C3)cc1"
reading_qualifier = "="
assay_value = 4.57

[[record]]
compound_structure_string = "Nc1ccc(-c2nc3cc(C(F)(F)F)ccc3n2C2CCCCC2)cc1"
reading_qualifier = "<"
assay_value = 4.00

